Consider compounds characterized by their IC50 with UniProt P00533.

# count of solved cases: 4
SMILES_STR	TARGET_OR_TEST_SYSTEM	READOUT_KIND	RESULT
CN(c1ccc2c(cnn2Cc2ccccc2)c1)c1ncnc(Nc2cccc(Cn3ccnn3)c2)n1	UniProt P00533	IC50	< 0.4 µg/mL
CN(c1cccc(Cl)c1)c1ncnc(Nc2cccc(Br)c2)n1	UniProt P00533	IC50	< 0.4 µg/mL
COc1cc(Nc2ncnc(-c3cccnc3Nc3ccccc3)n2)cc(OC)c1OC	UniProt P00533	IC50	> 4.5 µg/mL
COc1ccc(Nc2nc3ccccc3n2-c2ncnc(Nc3cc(OC)c(OC)c(OC)c3)n2)cc1	UniProt P00533	IC50	> 4.5 µg/mL

INPUT: API: value(readout=IC50, system=UniProt P00533) for record `Nc1nc2ccccc2n1-c1ncnc(Nc2ccc(Cl)cc2)n1`
OUTPUT: 0.4 to 2.4 µg/mL

====

# TARGET_OR_TEST_SYSTEM: EGFR (UniProt P00533)
# Sequence (P00533 whole entry, looked up): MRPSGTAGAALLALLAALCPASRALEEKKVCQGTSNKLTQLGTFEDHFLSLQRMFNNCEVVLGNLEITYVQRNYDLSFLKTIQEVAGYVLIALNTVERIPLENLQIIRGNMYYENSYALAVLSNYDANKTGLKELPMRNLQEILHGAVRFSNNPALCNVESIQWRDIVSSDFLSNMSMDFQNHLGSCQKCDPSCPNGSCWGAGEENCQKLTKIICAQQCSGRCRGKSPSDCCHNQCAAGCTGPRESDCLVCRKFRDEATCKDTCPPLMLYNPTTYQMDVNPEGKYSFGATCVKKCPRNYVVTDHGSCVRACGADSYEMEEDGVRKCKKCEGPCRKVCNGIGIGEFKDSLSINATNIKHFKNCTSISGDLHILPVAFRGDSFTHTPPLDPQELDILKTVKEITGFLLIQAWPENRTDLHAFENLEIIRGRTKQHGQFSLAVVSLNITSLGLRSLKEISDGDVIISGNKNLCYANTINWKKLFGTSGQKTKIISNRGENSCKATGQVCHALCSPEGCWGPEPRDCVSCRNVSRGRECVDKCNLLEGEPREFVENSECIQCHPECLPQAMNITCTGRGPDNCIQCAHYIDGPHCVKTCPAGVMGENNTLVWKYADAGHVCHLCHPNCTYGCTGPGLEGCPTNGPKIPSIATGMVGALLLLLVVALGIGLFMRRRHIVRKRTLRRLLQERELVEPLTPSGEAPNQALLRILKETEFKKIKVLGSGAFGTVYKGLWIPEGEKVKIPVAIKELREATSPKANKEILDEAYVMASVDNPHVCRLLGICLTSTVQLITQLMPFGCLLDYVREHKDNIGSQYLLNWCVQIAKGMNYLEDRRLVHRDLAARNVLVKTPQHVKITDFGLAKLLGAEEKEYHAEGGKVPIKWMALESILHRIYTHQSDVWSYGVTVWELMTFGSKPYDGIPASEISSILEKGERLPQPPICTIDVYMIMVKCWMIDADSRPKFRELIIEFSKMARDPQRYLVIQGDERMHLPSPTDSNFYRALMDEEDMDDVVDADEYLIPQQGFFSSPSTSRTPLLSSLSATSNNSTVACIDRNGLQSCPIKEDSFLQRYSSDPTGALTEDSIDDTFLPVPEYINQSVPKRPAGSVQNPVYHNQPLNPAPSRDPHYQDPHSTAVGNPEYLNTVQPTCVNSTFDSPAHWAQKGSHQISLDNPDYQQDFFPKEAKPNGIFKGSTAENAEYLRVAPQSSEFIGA
READOUT_KIND: IC50

# count of solved cases: 5
SMILES_STR	RESULT
COc1ccc2c(c1)nc(Nc1ccc3[nH]ccc3c1)n2-c1ncnc(Nc2cc(OC)c(OC)c(OC)c2)n1.COc1ccc2nc(Nc3ccc4[nH]ccc4c3)n(-c3ncnc(Nc4cc(OC)c(OC)c(OC)c4)n3)c2c1	> 4.5 µg/mL
FC(F)C(F)(F)Oc1cccc(Nc2ncnc(-c3ccnc(Cl)c3)n2)c1	> 4.5 µg/mL
COC(=O)c1ccc(-c2cc(Nc3ncnc(Nc4ccc(N5CCOCC5)cc4)n3)[nH]n2)cc1	3.5 to 4.5 µg/mL
Nc1ccc(Nc2ncnc(-c3ccccc3)n2)cc1	> 4.5 µg/mL
COc1cc(Nc2ncnc(-n3c(NCCc4ccccn4)nc4ccccc43)n2)cc(OC)c1OC	> 4.5 µg/mL

INPUT: API: value(readout=IC50, system=EGFR (UniProt P00533)) for record `COc1cc(Nc2ncnc(-n3c(N)nc4ccccc43)n2)cc(OC)c1OC`
OUTPUT: > 4.5 µg/mL

INPUT: API: value(readout=IC50, system=EGFR (UniProt P00533)) for record `COc1cc(Nc2ncnc(Nc3ccc4[nH]ccc4c3)n2)cc(OC)c1OC`
OUTPUT: < 0.4 µg/mL

INPUT: API: value(readout=IC50, system=EGFR (UniProt P00533)) for record `COc1ccc(CNc2nc3ccccc3n2-c2ncnc(Nc3cccc(Cc4nnn[nH]4)c3)n2)cc1`
OUTPUT: 0.4 to 2.4 µg/mL

INPUT: API: value(readout=IC50, system=EGFR (UniProt P00533)) for record `CCN(c1cccc(C)c1)c1ncnc(Nc2cc(OC)c(OC)c(OC)c2)n1`
OUTPUT: < 0.4 µg/mL

INPUT: API: value(readout=IC50, system=EGFR (UniProt P00533)) for record `COc1cc(Nc2nc3ccccc3n2-c2ncnc(Nc3cc(OC)c(OC)c(OC)c3)n2)cc(OC)c1`
OUTPUT: > 4.5 µg/mL

====

# TARGET_OR_TEST_SYSTEM: EGFR (UniProt P00533)
READOUT_KIND: IC50

SMILES_STR	TARGET_OR_TEST_SYSTEM	READOUT_KIND	RESULT
NC(=O)Cc1cccc(Nc2ncnc(Nc3cccc(Br)c3)n2)c1	EGFR (UniProt P00533)	IC50	< 0.4 µg/mL
COc1ccc(Nc2ncnc(-n3c(=O)[nH]c4ccccc43)n2)cc1OC	EGFR (UniProt P00533)	IC50	2.4 to 3.5 µg/mL
COc1ccc(Nc2ncnc(Nc3cc(-c4ccccc4)n[nH]3)n2)cc1OC	EGFR (UniProt P00533)	IC50	0.4 to 2.4 µg/mL

INPUT: Reported IC50 for `CCN(CC)CCOc1cc(Nc2ncnc(Nc3cc(OC)c(OC)c(OC)c3)n2)ccc1OC` : what is it?
OUTPUT: > 4.5 µg/mL

INPUT: Reported IC50 for `COc1cc(Nc2ncnc(-c3cccnc3NCc3ccccc3)n2)cc(OC)c1OC` : what is it?
OUTPUT: > 4.5 µg/mL

INPUT: Reported IC50 for `COc1cc(Nc2ncnc(-n3c(Nc4ccc(N(C)C)cc4)nc4ccccc43)n2)cc(OC)c1OC` : what is it?
OUTPUT: > 4.5 µg/mL

INPUT: Reported IC50 for `COc1ccc(CNc2nc3ccccc3n2-c2ncnc(Nc3cc(OC)c(OC)c(OC)c3)n2)cc1` : what is it?
OUTPUT: > 4.5 µg/mL
